molecular target: High affinity cAMP-specific and IBMX-insensitive 3',5'-cyclic phosphodiesterase 8A (Homo sapiens, UniProt O60658)
Sequence (O60658 whole entry): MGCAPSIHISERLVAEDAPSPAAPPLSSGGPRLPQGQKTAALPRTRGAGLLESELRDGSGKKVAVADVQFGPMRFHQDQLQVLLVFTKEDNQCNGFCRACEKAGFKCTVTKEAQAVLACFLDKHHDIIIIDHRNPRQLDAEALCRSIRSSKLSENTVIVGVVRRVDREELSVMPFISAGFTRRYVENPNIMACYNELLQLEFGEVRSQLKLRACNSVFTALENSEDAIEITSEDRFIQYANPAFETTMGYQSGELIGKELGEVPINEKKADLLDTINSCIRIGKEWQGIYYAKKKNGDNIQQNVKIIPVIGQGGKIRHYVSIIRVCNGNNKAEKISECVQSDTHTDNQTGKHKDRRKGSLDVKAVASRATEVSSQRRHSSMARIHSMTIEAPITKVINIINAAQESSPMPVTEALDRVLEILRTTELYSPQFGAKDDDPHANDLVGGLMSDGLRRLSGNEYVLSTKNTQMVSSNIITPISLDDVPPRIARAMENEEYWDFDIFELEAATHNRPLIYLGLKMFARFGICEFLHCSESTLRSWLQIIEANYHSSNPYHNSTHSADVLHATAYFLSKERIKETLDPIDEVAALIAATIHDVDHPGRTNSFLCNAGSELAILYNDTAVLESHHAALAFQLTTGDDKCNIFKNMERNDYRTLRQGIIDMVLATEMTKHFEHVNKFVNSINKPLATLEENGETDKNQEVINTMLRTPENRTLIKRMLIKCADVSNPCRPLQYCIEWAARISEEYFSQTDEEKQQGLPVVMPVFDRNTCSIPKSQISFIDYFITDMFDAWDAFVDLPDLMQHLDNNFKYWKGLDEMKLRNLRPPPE
Endpoint: IC50

# Molecule, Endpoint, Obs Value
records = [
    ("Nc1nc(Cl)nc2c1ncn2Cc1cc(OCC(F)F)ccn1", "IC50", "360 nM"),
]

###

experiment: Half life in Sprague-Dawley rat at 2.5 mg/kg, iv measured upto 24 hrs by LC-MS/MS analysis; assay type: ADME, organism-based; conditions: in vivo

# Molecule, half-life [h]
measured = [
    ("C[C@@H](c1cc(OCC(F)F)ccn1)n1cnc2c(N)nc(Cl)nc21", 2.36),
]

###

test: Dissociation constant, pKa of the compound; type: physicochemical

# Molecule, pKa
records = [
    ("C[C@@H](c1cc(OCC(F)F)ccn1)n1cnc2c(N)nc(Cl)nc21", 3.69),
]

###

target: Voltage-gated inwardly rectifying potassium channel KCNH2 (Homo sapiens); test: Inhibition of human ERG expressed in CHO cells by patch clamp method; assay type: cell-based
Sequence (Q12809 whole entry): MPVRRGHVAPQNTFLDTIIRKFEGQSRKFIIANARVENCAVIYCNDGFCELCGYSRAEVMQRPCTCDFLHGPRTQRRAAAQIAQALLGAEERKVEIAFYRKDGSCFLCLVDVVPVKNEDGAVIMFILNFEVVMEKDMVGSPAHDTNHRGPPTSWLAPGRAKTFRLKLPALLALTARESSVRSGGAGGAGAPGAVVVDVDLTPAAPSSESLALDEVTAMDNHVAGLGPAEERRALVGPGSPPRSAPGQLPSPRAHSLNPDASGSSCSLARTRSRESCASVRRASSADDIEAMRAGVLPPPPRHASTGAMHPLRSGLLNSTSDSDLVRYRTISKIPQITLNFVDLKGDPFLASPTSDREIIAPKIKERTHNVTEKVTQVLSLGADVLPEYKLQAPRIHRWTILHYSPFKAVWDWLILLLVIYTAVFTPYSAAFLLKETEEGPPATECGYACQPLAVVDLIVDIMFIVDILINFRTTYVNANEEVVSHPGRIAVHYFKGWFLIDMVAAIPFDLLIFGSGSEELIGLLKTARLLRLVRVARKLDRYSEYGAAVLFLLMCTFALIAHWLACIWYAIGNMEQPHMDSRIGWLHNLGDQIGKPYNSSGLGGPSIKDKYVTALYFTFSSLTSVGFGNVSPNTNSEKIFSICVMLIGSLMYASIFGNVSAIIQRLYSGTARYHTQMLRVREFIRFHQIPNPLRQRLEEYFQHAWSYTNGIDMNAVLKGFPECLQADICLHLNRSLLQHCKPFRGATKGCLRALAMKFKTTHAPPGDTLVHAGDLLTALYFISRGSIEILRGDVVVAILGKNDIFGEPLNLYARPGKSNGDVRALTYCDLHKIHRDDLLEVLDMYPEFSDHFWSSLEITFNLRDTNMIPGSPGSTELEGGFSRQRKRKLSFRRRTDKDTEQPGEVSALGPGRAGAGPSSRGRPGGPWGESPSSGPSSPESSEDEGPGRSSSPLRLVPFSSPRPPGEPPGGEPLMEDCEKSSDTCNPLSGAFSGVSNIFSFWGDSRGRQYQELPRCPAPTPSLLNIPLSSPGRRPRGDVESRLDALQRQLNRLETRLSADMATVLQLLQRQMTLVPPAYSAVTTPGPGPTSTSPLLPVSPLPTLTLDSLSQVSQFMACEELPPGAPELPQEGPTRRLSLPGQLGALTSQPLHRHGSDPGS

# Molecule, Unit String, IC50
records = [
    ("C[C@@H](c1cc(OCC(F)F)ccn1)n1cnc2c(N)nc(Cl)nc21", "µM", 18),
]

###

target: cGMP-inhibited 3',5'-cyclic phosphodiesterase 3A (Homo sapiens, UniProt Q14432)
Sequence (Q14432 whole entry): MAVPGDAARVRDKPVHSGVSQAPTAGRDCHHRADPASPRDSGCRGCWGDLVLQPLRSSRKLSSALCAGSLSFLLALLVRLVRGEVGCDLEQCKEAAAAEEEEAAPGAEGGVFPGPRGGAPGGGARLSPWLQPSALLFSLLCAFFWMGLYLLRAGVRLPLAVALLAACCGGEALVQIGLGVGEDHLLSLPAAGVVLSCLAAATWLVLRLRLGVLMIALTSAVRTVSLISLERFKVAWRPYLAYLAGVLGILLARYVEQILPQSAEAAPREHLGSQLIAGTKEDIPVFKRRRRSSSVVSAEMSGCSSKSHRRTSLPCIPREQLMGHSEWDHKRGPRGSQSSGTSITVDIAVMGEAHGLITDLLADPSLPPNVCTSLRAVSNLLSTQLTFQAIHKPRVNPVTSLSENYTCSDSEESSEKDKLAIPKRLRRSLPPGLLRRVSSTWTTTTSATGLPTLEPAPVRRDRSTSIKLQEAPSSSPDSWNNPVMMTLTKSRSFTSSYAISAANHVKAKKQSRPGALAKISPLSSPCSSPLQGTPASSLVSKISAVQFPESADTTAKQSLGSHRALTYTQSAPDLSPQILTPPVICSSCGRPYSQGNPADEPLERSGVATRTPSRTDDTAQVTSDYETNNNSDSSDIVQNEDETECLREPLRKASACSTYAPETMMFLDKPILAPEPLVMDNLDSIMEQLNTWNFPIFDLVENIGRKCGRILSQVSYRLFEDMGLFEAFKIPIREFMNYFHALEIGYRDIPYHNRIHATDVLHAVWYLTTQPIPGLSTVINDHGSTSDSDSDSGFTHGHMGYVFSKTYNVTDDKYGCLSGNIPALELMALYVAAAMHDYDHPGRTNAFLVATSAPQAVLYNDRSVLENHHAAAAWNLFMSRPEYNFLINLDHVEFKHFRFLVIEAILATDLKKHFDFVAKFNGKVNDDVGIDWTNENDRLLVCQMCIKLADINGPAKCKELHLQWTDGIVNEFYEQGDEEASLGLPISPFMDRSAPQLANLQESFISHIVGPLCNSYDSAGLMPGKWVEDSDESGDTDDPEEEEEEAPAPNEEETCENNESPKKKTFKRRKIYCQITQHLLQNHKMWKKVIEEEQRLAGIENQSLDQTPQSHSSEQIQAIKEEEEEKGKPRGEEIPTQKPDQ
pIC50: −log10 of the molar value.
Endpoint: pIC50

# Molecule, Obs Value
data = [
    ("C[C@@H](c1cc(OCC(F)F)ccn1)n1cnc2c(N)nc(Cl)nc21", "< 5.00"),
]

###

experiment: AUC (0 to infinity) in Sprague-Dawley rat at 10 mg/kg, po measured upto 24 hrs by LC-MS/MS analysis; type: ADME, organism-based; parameters: route oral, dose 10 mg/kg, time <=24; conditions: in vivo

# Molecule, AUC(0-inf)
records = [
    ("C[C@@H](c1cc(OCC(F)F)ccn1)n1cnc2c(N)nc(Cl)nc21", "17600 ng·h/mL"),
]

###

target: Cytochrome P450 2C19 (Homo sapiens, UniProt P33261)
Sequence (P33261 whole entry): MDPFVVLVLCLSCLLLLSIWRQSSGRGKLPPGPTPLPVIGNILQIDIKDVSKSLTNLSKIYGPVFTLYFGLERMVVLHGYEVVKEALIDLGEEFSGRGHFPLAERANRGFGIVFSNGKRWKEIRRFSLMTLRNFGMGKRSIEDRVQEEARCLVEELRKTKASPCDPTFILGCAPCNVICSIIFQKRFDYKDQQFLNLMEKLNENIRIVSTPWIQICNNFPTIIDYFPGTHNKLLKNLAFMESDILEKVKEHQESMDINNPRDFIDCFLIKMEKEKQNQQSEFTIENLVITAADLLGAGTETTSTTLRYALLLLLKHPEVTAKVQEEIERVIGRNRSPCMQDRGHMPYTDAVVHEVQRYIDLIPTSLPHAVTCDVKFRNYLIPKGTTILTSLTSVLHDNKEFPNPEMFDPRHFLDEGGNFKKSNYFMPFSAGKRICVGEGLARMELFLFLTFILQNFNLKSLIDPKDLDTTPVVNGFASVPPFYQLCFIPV
Endpoint: IC50

# Molecule, Endpoint, Obs Value
data = [
    ("C[C@@H](c1cc(OCC(F)F)ccn1)n1cnc2c(N)nc(Cl)nc21", "IC50", "> 25 µM"),
]

###

assay: Cmax in Sprague-Dawley rat at 10 mg/kg, po measured upto 24 hrs by LC-MS/MS analysis; type: ADME, organism-based; design: route oral, dose 10 mg/kg, time <=24; conditions: in vivo

# Molecule, Cmax
data = [
    ("C[C@@H](c1cc(OCC(F)F)ccn1)n1cnc2c(N)nc(Cl)nc21", "1.94 µg/mL"),
]

###

target: Cytochrome P450 2D6 (Homo sapiens); assay: Inhibition of CYP2D6 in human liver microsomes in presence of NADPH; type: ADME
Sequence (P10635 whole entry): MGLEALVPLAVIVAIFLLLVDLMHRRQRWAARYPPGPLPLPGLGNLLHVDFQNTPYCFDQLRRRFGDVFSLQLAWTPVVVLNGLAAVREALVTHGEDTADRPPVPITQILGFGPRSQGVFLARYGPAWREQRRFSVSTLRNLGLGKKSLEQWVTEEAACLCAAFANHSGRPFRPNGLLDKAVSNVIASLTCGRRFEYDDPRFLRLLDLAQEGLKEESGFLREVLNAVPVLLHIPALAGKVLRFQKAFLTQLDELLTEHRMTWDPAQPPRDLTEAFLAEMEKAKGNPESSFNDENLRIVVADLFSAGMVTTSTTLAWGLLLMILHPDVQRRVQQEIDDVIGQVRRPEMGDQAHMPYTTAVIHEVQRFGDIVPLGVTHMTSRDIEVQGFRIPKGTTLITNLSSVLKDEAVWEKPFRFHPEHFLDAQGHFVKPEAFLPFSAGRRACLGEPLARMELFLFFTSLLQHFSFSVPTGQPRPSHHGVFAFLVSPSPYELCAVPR
pIC50: −log10 of the molar value.
Endpoint: pIC50

# Molecule, System Under Test, Endpoint, Obs Value
measured = [
    ("C[C@@H](c1cc(OCC(F)F)ccn1)n1cnc2c(N)nc(Cl)nc21", "Cytochrome P450 2D6 (Homo sapiens)", "pIC50", "< 4.60"),
]

###

assay: MRT (0 to t) in Sprague-Dawley rat at 10 mg/kg, po measured upto 24 hrs by LC-MS/MS analysis; type: ADME, organism-based; details: in vivo

# Molecule, MRT last at 24 h
data = [
    ("C[C@@H](c1cc(OCC(F)F)ccn1)n1cnc2c(N)nc(Cl)nc21", "7.2 h"),
]

###

assay: Protein binding in human plasma; assay type: ADME, cell-free; settings: read-out: PPB (converted)
Endpoint: fraction unbound

# Molecule, Obs Value
data = [
    ("C[C@@H](c1cc(OCC(F)F)ccn1)n1cnc2c(N)nc(Cl)nc21", 0.22),
]

###

test: Cmax in Sprague-Dawley rat at 2.5 mg/kg, iv measured upto 24 hrs by LC-MS/MS analysis; assay type: ADME, organism-based; design: route intravenous, dose 2.5 mg/kg, time <=24; settings: in vivo
Endpoint: Cmax (ng/mL)

# Molecule, Obs Value
data = [
    ("C[C@@H](c1cc(OCC(F)F)ccn1)n1cnc2c(N)nc(Cl)nc21", 2190),
]

###

experiment: Oral bioavailability in Sprague-Dawley rat at 10 mg/kg measured upto 24 hrs by LC-MS/MS analysis; type: ADME, organism-based; details: in vivo

# Molecule, Unit String, bioavailability
rows = [
    ("C[C@@H](c1cc(OCC(F)F)ccn1)n1cnc2c(N)nc(Cl)nc21", "%", 47),
]

###

test: MRT (0 to t) in Sprague-Dawley rat at 2.5 mg/kg, iv measured upto 24 hrs by LC-MS/MS analysis; format: ADME, organism-based; settings: in vivo
Endpoint: MRT last at 24 h (h)

# Molecule, Obs Value
records = [
    ("C[C@@H](c1cc(OCC(F)F)ccn1)n1cnc2c(N)nc(Cl)nc21", 4.48),
]

###

experiment: Lipophilicity, log P of the compound; assay type: physicochemical; conditions: octanol/water

# Molecule, logP
data = [
    ("C[C@@H](c1cc(OCC(F)F)ccn1)n1cnc2c(N)nc(Cl)nc21", 3.84),
]

###

biological target: Cytochrome P450 3A4 (Homo sapiens)
Sequence (P08684 whole entry): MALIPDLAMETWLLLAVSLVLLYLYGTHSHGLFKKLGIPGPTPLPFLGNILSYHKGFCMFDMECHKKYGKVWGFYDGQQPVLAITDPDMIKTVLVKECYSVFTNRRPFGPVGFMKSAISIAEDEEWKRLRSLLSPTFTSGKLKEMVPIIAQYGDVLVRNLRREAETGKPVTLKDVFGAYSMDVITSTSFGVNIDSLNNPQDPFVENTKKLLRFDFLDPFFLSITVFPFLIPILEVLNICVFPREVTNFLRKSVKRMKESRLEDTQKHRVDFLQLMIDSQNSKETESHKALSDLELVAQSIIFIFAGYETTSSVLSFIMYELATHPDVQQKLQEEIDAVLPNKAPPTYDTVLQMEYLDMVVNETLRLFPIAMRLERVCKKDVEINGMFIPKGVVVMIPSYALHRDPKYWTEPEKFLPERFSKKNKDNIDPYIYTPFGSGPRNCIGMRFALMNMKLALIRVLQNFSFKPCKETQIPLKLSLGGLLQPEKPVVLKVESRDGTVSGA
pIC50: −log10 of the molar value.

# Molecule, pIC50
measured = [
    ("C[C@@H](c1cc(OCC(F)F)ccn1)n1cnc2c(N)nc(Cl)nc21", "< 4.60"),
]

###

assay: Tmax in Sprague-Dawley rat at 10 mg/kg, po measured upto 24 hrs by LC-MS/MS analysis; type: ADME, organism-based; details: in vivo
Endpoint: Tmax (h)

# Molecule, Endpoint, Unit String, Obs Value
records = [
    ("C[C@@H](c1cc(OCC(F)F)ccn1)n1cnc2c(N)nc(Cl)nc21", "Tmax", "h", 4),
]

###

test: AUC (0 to t) in Sprague-Dawley rat at 2.5 mg/kg, iv measured upto 24 hrs by LC-MS/MS analysis; format: ADME, organism-based; parameters: route intravenous, dose 2.5 mg/kg, time <=24; settings: in vivo
Endpoint: AUC(0-t) at 24 h (ng·h/mL)

# Molecule, Obs Value
rows = [
    ("C[C@@H](c1cc(OCC(F)F)ccn1)n1cnc2c(N)nc(Cl)nc21", 9410),
]

###

assay: AUC (0 to t) in Sprague-Dawley rat at 10 mg/kg, po measured upto 24 hrs by LC-MS/MS analysis; type: ADME, organism-based; design: route oral, dose 10 mg/kg, time <=24; conditions: in vivo
Endpoint: AUC(0-t) at 24 h (ng·h/mL)

# Molecule, Endpoint, Unit String, Obs Value
measured = [
    ("C[C@@H](c1cc(OCC(F)F)ccn1)n1cnc2c(N)nc(Cl)nc21", "AUC(0-t) at 24 h", "ng·h/mL", 17500),
]

###

test: Aqueous solubility of compound at pH 7.3 by HPLC analysis; assay type: physicochemical; details: aqueous medium
Endpoint: solubility

# Molecule, Obs Value
rows = [
    ("C[C@@H](c1cc(OCC(F)F)ccn1)n1cnc2c(N)nc(Cl)nc21", "108 µg/mL"),
]

###

experiment: Tmax in Sprague-Dawley rat at 2.5 mg/kg, iv measured upto 24 hrs by LC-MS/MS analysis; type: ADME, organism-based; details: in vivo

# Molecule, Tmax / min
data = [
    ("C[C@@H](c1cc(OCC(F)F)ccn1)n1cnc2c(N)nc(Cl)nc21", 8.4),
]

###

experiment: Half life in Sprague-Dawley rat at 10 mg/kg, po measured upto 24 hrs by LC-MS/MS analysis; format: ADME, organism-based; details: in vivo

# Molecule, half-life, h
data = [
    ("C[C@@H](c1cc(OCC(F)F)ccn1)n1cnc2c(N)nc(Cl)nc21", 2.82),
]

###

assay: AUC (0 to infinity) in Sprague-Dawley rat at 2.5 mg/kg, iv measured upto 24 hrs by LC-MS/MS analysis; assay type: ADME, organism-based; set-up: route intravenous, dose 2.5 mg/kg, time <=24; conditions: in vivo

# Molecule, AUC(0-inf)
data = [
    ("C[C@@H](c1cc(OCC(F)F)ccn1)n1cnc2c(N)nc(Cl)nc21", "9.42 µg·h/mL"),
]
